Tested on: zebrafish embryos
assay_notes: Manually assessed pericardial edema in treated zebrafish
Type: in vivo
assay_conditions: number of fish, 20 µM, Tg(myl7:eGFP)
Structures can show the parent of a compound that is named as a salt.
endpoint: Edema: Severe
Respond with the number and no other words.

Here is how some compounds turned out for Edema: Severe.
compound	test_result
Oc1ccc(OCc2ccccc2)cc1 [Monobenzone]	2
CCC(Cc1c(I)cc(I)c(N)c1I)C(=O)O (stereo not drawn) [Iopanoic acid]	0
OCCN1CCN(CCCN2c3ccccc3C=Cc3ccccc32)CC1 [Opipramol diHCl]	0

Suppose we examine the compound Cc1cc(/C=C/c2ccc3cc(N(C)C)ccc3[n+]2C)c(C)n1-c1ccccc1 [Pyrvinium pamoate] ; what Edema: Severe value has been reported?
0

How about this compound: CN(C)CCN(Cc1ccccc1)c1ccccn1 [Tripelennamine HCl, tripelennamine HCl]
0

How about this compound: CC(C)c1c(C(=O)Nc2ccccc2)c(-c2ccccc2)c(-c2ccc(F)cc2)n1CC[C@@H](O)C[C@@H](O)CC(=O)O [Atorvastatin, atorvastatin]
0

How about this compound: CNCC[C@@H](Oc1cccc2ccccc12)c1cccs1 [(R)-Duloxetine HCl]
2

How about this compound: CC(=O)[C@H]1CC[C@H]2[C@@H]3CC=C4C[C@@H](O)CC[C@]4(C)[C@H]3CC[C@]12C [Pregnenolone]
1

How about this compound: C[C@@H]1C[C@@H]([C@H](O)CC2CC(=O)NC(=O)C2)C(=O)[C@@H](C)C1 [Cycloheximide]
3

====

Test system: zebrafish embryos
assay_notes: Manually assessed pericardial edema in treated zebrafish
Format: in vivo
assay_conditions: 20 µM, myl7:eGFP zebrafish

compound	Pericardial edema severity
OCCN1CCN(CCCN2c3ccccc3C=Cc3ccccc32)CC1 [Opipramol diHCl]	mild edema
CCC(Cc1c(I)cc(I)c(N)c1I)C(=O)O (stereo not shown)	mild edema

====

System: Tg(fli1a:nEGFP)^y7 zebrafish embryos
assay_notes: Primary high-content heart rate screen of the Prestwick Chemical Library (HeartBeat software v.2.1)
Assay type: in vivo
assay_conditions: Tg(fli1a:nEGFP)^y7, zebrafish, in vivo, 24 h, 20 µM
Where a name gives a salt, the structure may show the parent alone.
Measured Z-score Heart rate, listed per entry for reference.
The response must be a number in z-score with no trailing unit.

Here is how some compounds turned out for Z-score Heart rate.
compound	Z-score Heart rate, z-score
CN(C)CCN(Cc1cccs1)c1ccccn1 [Methapyrilene HCl, methapyrilene HCl]	-2.21
CN1CCC[C@@H]1CCO[C@](C)(c1ccccc1)c1ccc(Cl)cc1 [Clemastine fumarate]	-2.7618
CN(C)CCN(Cc1ccccc1)c1ccccn1 [Tripelennamine HCl, tripelennamine HCl]	-2.358
CN(C)CCN(Cc1ccc(Cl)cc1)c1ccccn1 [Chloropyramine HCl, chloropyramine HCl]	-2.971

Suppose we examine the compound CN1CCCC(n2nc(Cc3ccc(Cl)cc3)c3ccccc3c2=O)CC1 (centres unmarked) [Azelastine hydrochloride] ; what Z-score Heart rate value has been reported?
-2.598

====

Measured Z-score Heart rate, listed per entry for reference.
Test system: Tg(fli1a:nEGFP)^y7 zebrafish embryos
assay_notes: Primary high-content heart rate screen of the Prestwick Chemical Library (HeartBeat software v.2.1)
Format: in vivo
assay_conditions: Tg(fli1a:nEGFP)^y7, zebrafish, in vivo, 24 h, 20 µM
Structures can show the parent of a compound that is named as a salt.
Note: state the figure and append the unit.

Here is how some molecules turned out for Z-score Heart rate.
molecule	Z-score Heart rate
CC(C)(C)c1ccc(C(O)CCCN2CCC(C(O)(c3ccccc3)c3ccccc3)CC2)cc1 (stereo not shown) [Terfenadine]	-5.761 z-score
COc1ccc(CCN2CCC(Nc3nc4ccccc4n3Cc3ccc(F)cc3)CC2)cc1 [Astemizole]	-7.189 z-score
CN(C)CCC(c1ccc(Br)cc1)c1ccccn1 (stereo not shown) [Brompheniramine maleate]	-2.122 z-score

Let's switch to this molecule now.
Suppose we examine the molecule CN1CCC(OC(c2ccccc2)c2ccccc2)CC1 [Diphenylpyraline hydrochloride] ; what Z-score Heart rate value has been reported?
-3.549 z-score
